Measured values drawn from PubChem BioAssay AID449762 for this set.

- Tested on: M. tuberculosis H37Rv growth inhibition, 7H9 media
- assay explanation: M. tuberculosis growth inhibition, HTS (AID 449762);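 note: bacterial growth assessed after seven days of incubation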
- measurement setup: measured here: IC90 growth inhibition
Records with an inconclusive call do not appear.
Here the recorded IC90 is given for each entry.
Just the number please, in µM, no unit attached.

Measured IC90, `CNc1ccc2oc(C[C@H]3O[C@@]4(CC[C@H]3C)O[C@H]([C@H](C)C(=O)c3ccc[nH]3)[C@H](C)C[C@H]4C)nc2c1C(=O)O` : 1.97

* * *

- Test system: M. tuberculosis H37Rv growth inhibition, 7H9 media
- assay explanation: M. tuberculosis growth inhibition, HTS (AID 449762);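 note: bacterial growth assessed after seven days of incubation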
- measurement setup: measured here: IC90 growth inhibition
Inconclusive results are not listed.
parameter: IC90 (µM)
Just the number please, in µM, no unit attached.

Example entries and their recorded answers appear below.
- compound: "Cc1c(C(=O)Oc2cccc3ccccc23)cnn1-c1ccccc1"
  target system: "M. tuberculosis H37Rv growth inhibition, 7H9 media"
  unit abbreviation: "µM"
  quantitative readout: 26.9
- compound: "C=CCn1c(O)c(N=Nc2ccccc2O)c2ccccc21"
  target system: "M. tuberculosis H37Rv growth inhibition, 7H9 media"
  unit abbreviation: "µM"
  quantitative readout: 24.3
- compound: "Cc1nn(-c2ccccc2)c(N)c1N=Nc1ccc(Cl)cc1"
  target system: "M. tuberculosis H37Rv growth inhibition, 7H9 media"
  unit abbreviation: "µM"
  quantitative readout: 41.5
- compound: "Cc1ccc(CN2CC(C(=O)OCc3ccccc3Cl)CC2=O)cc1 (configuration not stated)"
  target system: "M. tuberculosis H37Rv growth inhibition, 7H9 media"
  unit abbreviation: "µM"
  quantitative readout: 28.7
- compound: "Cc1cc(C)c2ccc(NN)nc2c1O"
  target system: "M. tuberculosis H37Rv growth inhibition, 7H9 media"
  unit abbreviation: "µM"
  quantitative readout: 4.95
- compound: "COc1ccc(C)cc1Nc1n[n+](-c2ccccc2)c(-c2c(Cl)cccc2Cl)s1"
  target system: "M. tuberculosis H37Rv growth inhibition, 7H9 media"
  unit abbreviation: "µM"
  quantitative readout: 25.9

Measured IC90, CC1=NN(c2ccccc2)C(=O)C1C(=O)c1ccccc1 (configuration not stated) : 53

Measured IC90, `Clc1ccc(NNc2ccnc3cc(Cl)ccc23)cc1` : 21.5

Measured IC90, `COc1ccc(-c2csc3ncnc(N4CCN(c5ccccc5OC)CC4)c23)cc1` : 26.2

Measured IC90, `Cc1ccc(C2=NCCn3c2c2ccccc2[n+]3[O-])cc1` : 38.9

* * *

- Test system: M. tuberculosis H37Rv growth inhibition, 7H9 media
- assay explanation: M. tuberculosis growth inhibition, HTS (AID 449762);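 note: bacterial growth assessed after seven days of incubation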
- measurement setup: measured here: IC90 growth inhibition
Inconclusive results are not listed.
parameter: IC90 (µM)
Just the number please, in µM, no unit attached.

- molecule: "Cc1nc2ccc(NC(=O)c3ccc([N+](=O)[O-])cc3[N+](=O)[O-])cc2s1"
  quantitative readout: 16.7
- molecule: "CC(=O)c1cccc(NC(=S)NC2CCCCCCC2)c1"
  quantitative readout: 26.2
- molecule: "CCOC(=O)COc1ccc(S(=O)(=O)NCCC2=CCCCC2)cc1"
  quantitative readout: 27.6
- molecule: "Clc1ccc(C(Cn2ccnc2)OCc2csc3c(Cl)cccc23)c(Cl)c1 (stereo unspecified)"
  quantitative readout: 24.8
- molecule: "Cc1cc(C(=O)N/N=C\\C(Br)=C\\c2ccccc2)c(C)o1"
  quantitative readout: 53.8
- molecule: "O=C(NNC1CC(=O)N(c2ccc(Br)cc2)C1=O)c1ccccn1 (stereo unspecified)"
  quantitative readout: 13.6
- molecule: "COc1cc(C(=O)N/N=C/c2cc([N+](=O)[O-])cs2)cc(OC)c1OC"
  quantitative readout: 25.9

Turning now to a further record.
Measured IC90, `c1ccc(CSc2ccc(-c3ccccn3)nn2)cc1` : 26.9

* * *

Here the recorded IC90 is given for each entry.
- Tested on: M. tuberculosis H37Rv growth inhibition, 7H9 media
- assay explanation: M. tuberculosis growth inhibition, HTS (AID 449762);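 note: bacterial growth assessed after seven days of incubation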
- measurement setup: measured here: IC90 growth inhibition
Results filed as inconclusive are left out.
Just the number please, in µM, no unit attached.

Example entries and their recorded answers appear below.
- compound: "Cc1[nH][nH]c(=O)c1C(c1ccc(-c2ccc(Cl)c(Cl)c2)o1)c1c(C)[nH][nH]c1=O"
  quantitative readout: 85.6
- compound: "O=C(C1CCCN(c2ncnc3c2nc2n3CCCCC2)C1)N1CCN(c2ccc(Cl)cc2)CC1 (stereo not given)"
  quantitative readout: 40.3

Turning now to a further record.
Measured IC90, O=C(CCl)N1CCN2C(=O)c3ccccc3C12c1ccc(Cl)cc1 (stereo not given) : 7.84

* * *

- Test system: M. tuberculosis H37Rv growth inhibition, 7H9 media
- assay explanation: M. tuberculosis growth inhibition, HTS (AID 449762);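 note: bacterial growth assessed after seven days of incubation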
- measurement setup: measured here: IC90 growth inhibition
Results filed as inconclusive are left out.
parameter: IC90 (µM)
Just the number please, in µM, no unit attached.

Example entries and their recorded answers appear below.
- compound: "Cc1[nH]c2ccccc2c1C(=O)COC(=O)c1ccc([N+](=O)[O-])s1"
  quantitative readout: 2
- compound: "CCOC(=O)CSc1nnc(NC(=O)c2ccc3c(c2)OCO3)s1"
  quantitative readout: 42.3
- compound: "O=C(Nc1nc2ccc(SC(F)F)cc2s1)c1ccc(NS(=O)(=O)c2ccc(F)c(F)c2)cc1"
  quantitative readout: 24.7
- compound: "O=C(Nc1ccc(N2CCN(C(=O)c3ccco3)CC2)cc1)C(c1ccccc1)c1ccccc1"
  quantitative readout: 22.6
- compound: "NC(=S)N/N=C/c1ccc(-c2ccccc2)o1"
  quantitative readout: 75
- compound: "Nc1ccc(-c2nc3nc(N)nc(N)c3nc2-c2ccc(N)cc2)cc1"
  quantitative readout: 57.5
- compound: "CC(C)[C@H](CO)N(Cc1cccc(F)c1)c1nc(Nc2cccc(Cl)c2)c2ncn(C(C)C)c2n1"
  quantitative readout: 35.4
- compound: "C/C(=N\\NC(=S)Nc1cccc(C)c1)c1cccc(N)c1"
  quantitative readout: 30.4
- compound: "C=C(C)C1CC=C(CN2CCN(Cc3ccccc3)CC2)CC1 (configuration not stated)"
  quantitative readout: 25.9
- compound: "O=C(O)C1CC=CCC1C(=O)N1CCN(c2nc(-c3ccccc3Cl)c3cc(Br)ccc3n2)CC1 (configuration not stated)"
  quantitative readout: 78.5

Measured IC90, `COc1ccc2c3n(nc2c1)CCN=C3c1cc(Cl)c(N)c(Cl)c1` : 31.9

Measured IC90, `O=C(Oc1ccccc1)c1ccccc1OS(=O)(=O)c1ccccc1` : 14.3

Measured IC90, CCOC(=O)c1c(NC(=O)C(NCCN(C)C)c2ccccc2)sc2c1CCCC2 (configuration not stated) : 10.1

Measured IC90, O=C(NC1CCCC(C(F)(F)F)C1)c1ccc([N+](=O)[O-])o1 (configuration not stated) : 12.3

Measured IC90, `CC1=NOC(=O)/C1=C/c1ccc(-c2ccc(Cl)cc2)o1` : 70.3

Measured IC90, `Cc1[nH]c2ccc(OC(F)(F)F)cc2c1CCNCc1ccc(Cl)cc1` : 19

Measured IC90, `CCCCOC(=O)CCN1C(=O)/C(=C2\SC(=S)N(CCC(=O)OCCCC)C2=O)SC1=S` : 6.96

Measured IC90, `Cc1ccc(-n2nc(C)c3c(C)c(CCC(=O)Nc4ccc(CN5CCCC5)cc4)c(C)nc32)cc1` : 19.9

Measured IC90, `c1ccc(CN2CCN(CCCNc3ccc4nnc(-c5ccccc5)n4n3)CC2)cc1` : 24.7

Measured IC90, `COc1ccc(C(=O)C[n+]2ccc3c(c2)nc(-c2cc(OC)c(OC)cc2OC)n3C)cc1` : 13.4

Measured IC90, `N#Cc1cccc(NC(=O)N2CCC(c3nc4c(nnn4Cc4cccc(Cl)c4)c(=O)[nH]3)CC2)c1` : 13.5

Measured IC90, `O=c1oc2ccccc2c(Nc2ccccc2O)c1[N+](=O)[O-]` : 14

Measured IC90, `c1ccc(-c2nc(N3CCCC3)nc3ccccc23)cc1` : 51.8

Measured IC90, `Cc1csc(NC(=S)Nc2cccc(Cl)c2)n1` : 6.01

Measured IC90, `Cc1cc2[nH]c3c(c[n+](C)c4ccccc34)c2cc1C` : 13.1

Measured IC90, `CC(=O)c1cccc2c(O)c(C3=Nc4ccccc4C3=O)[nH]c12` : 13.2

Measured IC90, `CCC(C)(C)c1ccc(OCCCC[n+]2ccc(C)cc2)c(C(C)(C)CC)c1` : 15

* * *

- System: M. tuberculosis H37Rv growth inhibition, 7H9 media
- assay explanation: M. tuberculosis growth inhibition, HTS (AID 449762);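 note: bacterial growth assessed after seven days of incubation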
- measurement setup: measured here: IC90 growth inhibition
Results filed as inconclusive are left out.
parameter: IC90 (µM)
Just the number please, in µM, no unit attached.

- molecule: "CCOc1cc(-c2c(C#N)c(=O)[nH]c3c2c(C)nn3-c2ccc(F)cc2)ccc1O"
  target system: "M. tuberculosis H37Rv growth inhibition, 7H9 media"
  quantitative readout: 4.98
- molecule: "CCCC1CC(C)(c2csc(Nc3ccc(OCC)cc3)n2)OC1=O (stereo unspecified)"
  target system: "M. tuberculosis H37Rv growth inhibition, 7H9 media"
  quantitative readout: 46.5
- molecule: "O=C(CSc1cccc[n+]1[O-])c1cccs1"
  target system: "M. tuberculosis H37Rv growth inhibition, 7H9 media"
  quantitative readout: 16.5

Measured IC90, `Cc1ccc(-n2nnc3c(=O)oc4ccccc4c32)cc1` : 19.9

Measured IC90, `CCOc1ccc(C(=O)CCN2CCCCCC2)cc1` : 17.4

Measured IC90, `COc1cc(-c2ccc3oc(-c4ccsc4)cc(=O)c3c2)cc(OC)c1OC` : 17.6

Measured IC90, `Cc1ccccc1Cn1cc(NC(=O)c2noc(C(C)C)c2[N+](=O)[O-])cn1` : 8.72
